Source listed as ChEMBL document CHEMBL3124919.

# test.name: Inhibition of beta-hematin formation at 2.5 mM after 24 hrs by spectrophotometry
# Type: physicochemical
# condition.summary: 2500 µM
assay.endpoint: inhibition (INH) (%)
// note: answer is a bare numeric in %

Entry O=C(CCN1CCN(c2ccnc3cc(Cl)ccc23)CC1)N/N=C/c1c[nH]c2ccccc12 , inhibition (INH) reported as 43.3

Entry CC(C)c1ccc(/C=N/NC(=O)CCN2CCN(c3ccnc4cc(Cl)ccc34)CC2)cc1 , inhibition (INH) reported as 94

Entry O=C(CCN1CCN(c2ccnc3cc(Cl)ccc23)CC1)N/N=C/c1ccccc1Cl , inhibition (INH) reported as 87.3

Entry NNC(=O)CCN1CCN(c2ccnc3cc(Cl)ccc23)CC1 , inhibition (INH) reported as 21.7

Entry CCN(CC)CCCC(C)Nc1ccnc2cc(Cl)ccc12 (centres undefined) , inhibition (INH) reported as 87.1

Entry O=C(CCN1CCN(c2ccnc3cc(Cl)ccc23)CC1)N/N=C/c1ccccc1O , inhibition (INH) reported as 83.2

Entry CN(C)c1ccc(/C=N/NC(=O)CCN2CCN(c3ccnc4cc(Cl)ccc34)CC2)cc1 , inhibition (INH) reported as 94.2

Entry COc1cc(/C=N/NC(=O)CCN2CCN(c3ccnc4cc(Cl)ccc34)CC2)ccc1OC(C)C , inhibition (INH) reported as 15.7

Entry COc1cc(/C=N/NC(=O)CCN2CCN(c3ccnc4cc(Cl)ccc34)CC2)ccc1O , inhibition (INH) reported as 50.7
